Attribution: PubChem BioAssay (Tox21)

assayRemarks: qHTS assay to identify small molecule antagonists of the peroxisome proliferator-activated receptor delta (PPARd) signaling pathway - cell viability counter screen (AID 743213); also: nearly all actives have a fitted effect of over 50% in size
testContext: PPARd-bla HEK293H viability, CellTiter-Glo luminescence, 17 h; series mostly up to 62 µM
Records with an inconclusive call do not appear. Calls of active or inactive are those of the source. Calls follow the shape of the dose curve; as a rule, active = well fitted cell-killing curve with a large enough effect in the repeat runs; inconclusive = weak or mixed curves; inactive = no such curve, though single readings can be large or run the other way.
Possible outcomes: label 1 (active), label 0 (inactive)

smilesRepr	categoryLabel
CCN(CC)CCNC(=O)c1c(C)[nH]c(/C=C2\C(=O)Nc3ccc(F)cc32)c1C	label 1
CC[C@H](c1ccc(O)cc1)[C@@H](CC)c1ccc(O)cc1	label 0
[O-][n+]1ccccc1SSc1cccc[n+]1[O-]	label 1
Cc1c(C)c2c(c(C)c1OC(=O)CCC(=O)O)CC[C@@](C)(CCC[C@H](C)CCC[C@H](C)CCCC(C)C)O2	label 0
CCCCCCCCn1sc(Cl)c(Cl)c1=O	label 1
CC(=O)SC[C@@H](Cc1ccccc1)C(=O)NCC(=O)OCc1ccccc1	label 0

---

assayRemarks: qHTS assay to identify small molecule antagonists of the estrogen receptor alpha (ER-alpha) signaling pathway using the BG1 cell line in the presence of 0.1 nM 17-beta-estradiol - cell viability counter screen (AID 1259241); also: nearly all actives have a fitted effect of over 40% in size
testContext: VM7Luc4E2 (BG1) viability, CellTiter-Fluor protease, 22 h, 0.1 nM estradiol agonist added; series mostly up to 92.4 µM
Records with an inconclusive call do not appear. The source made the active and inactive calls. Calls follow the shape of the dose curve; as a rule, active = well fitted cell-killing curve with a large enough effect in the repeat runs; inconclusive = weak or mixed curves, or effect the other way; inactive = flat fitted curve, though single readings scatter.
Possible outcomes: active, inactive

smilesRepr	categoryLabel
COc1cccc(N)c1	inactive
COc1ccc(C(=O)/C(Br)=C\C(=O)O)cc1	inactive
O=C(Nc1cccc([N+](=O)[O-])c1)c1cc2ccccc2cc1O	inactive
C=C(C)C(=O)OCC[N+](C)(C)C	inactive
Nc1ccc(N)c2ccccc12	active
ON=C1CCCC1	inactive
Fc1ccc(C(c2ccc(F)cc2)N2CCN(C/C=C/c3ccccc3)CC2)cc1	inactive

---

assayRemarks: qHTS assay to identify small molecule antagonists of the estrogen related receptor (ERR) signaling pathway from Tox21 library - cell viability counter screen (AID 1224834); also: nearly all actives have a fitted effect of over 30% in size
testContext: ERR reporter cells viability, CellTiter-Fluor, 17.5 h; series mostly up to 92.4 µM
Inconclusive results are not listed. The source made the active and inactive calls. Calls come from the whole dose curve; as a rule, active = well fitted cell-killing curve with a large enough effect in the repeat runs; inconclusive = weak or mixed curves; inactive = flat fitted curve, though single readings scatter.
Possible outcomes: label 1 (active), label 0 (inactive)

compound	categoryLabel
CC(C)(C)C(=O)OCOC(=O)C1N2C(=O)CC2S(=O)(=O)C1(C)C (centres undefined)	label 0
CCCC(C)c1ccccc1O (centres undefined)	label 0
CCCCCOc1ccccc1/C(=C\SC)n1ccnc1	label 1
CC(C)n1nc(-c2cc3cc(O)ccc3[nH]2)c2c(N)ncnc21	label 1
O=C(Nc1ccc(Oc2ccc(Cl)cc2)c(Cl)c1)c1cc(I)cc(I)c1O	label 0
CO[Si](CCCNc1ccccc1)(OC)OC	label 0
NC(=O)CC[C@@H]1NC(=O)[C@H](Cc2ccccc2)NC(=O)[C@H](Cc2ccc(O)cc2)NC(=O)CCSSC[C@@H](C(=O)N2CCC[C@H]2C(=O)N[C@@H](CCCN=C(N)N)C(=O)NCC(N)=O)NC(=O)[C@H](CC(N)=O)NC1=O	label 0
CCCN(CCC)C(=O)C(CCC(=O)OCCCN1CCN(CCOC(=O)Cc2c(C)n(C(=O)c3ccc(Cl)cc3)c3ccc(OC)cc23)CC1)NC(=O)c1ccccc1 (centres undefined)	label 1
Oc1c(Cl)cc(Cl)c2cccnc12	label 1
